assay: TOR pathway LAP4-GFP level changes – S. cerevisiae, multiplex flow cytometry, primary screen (AID 1873); conditions: S. cerevisiae LAP4-GFP expression, 3 h, at 10 µM, stronger effect = higher value
Results filed as inconclusive are left out.
observation type: GFP response vs DMSO (%)
Record the value in %, omitting the unit from your answer.

compound	GFP response vs DMSO / %
COc1ccc2cc(C3(C)NC(=O)NC3=O)ccc2c1 (configuration not stated)	117
Cc1oncc1C(=O)Nc1ccc(C(F)(F)F)cc1	124
CCN(CCCCCN(C)C)Cc1cc2ccccc2o1	112
Cn1c(=O)c2[nH]cnc2n(C)c1=O	80.9
CC(C)C[C@H]1C(=O)N2CCC[C@H]2[C@]2(O)O[C@](NC(=O)[C@@H]3C=C4c5cccc6[nH]c(Br)c(c56)CC4N(C)C3)(C(C)C)C(=O)N12 (some centres not stated)	102

Task item: Record request: GFP response vs DMSO value, item Nc1ccc(S(=O)(=O)NC(=O)c2ccccc2)cc1
Reply: 99.9

Task item: Record request: GFP response vs DMSO value, item Oc1ccccc1OCCOc1ccccc1OCCOc1ccccc1O
Reply: 117

Task item: Record request: GFP response vs DMSO value, item CC(=O)Nc1c(I)c(NC(C)=O)c(I)c(C(=O)O)c1I
Reply: 78.1

Task item: Record request: GFP response vs DMSO value, item CC(C)c1ccc(/C=C/C(=O)O)cc1
Reply: 161

Task item: Record request: GFP response vs DMSO value, item CC(=O)OC(CC(=O)O)C[N+](C)(C)C (configuration not stated)
Reply: 92.7

Task item: Record request: GFP response vs DMSO value, item Cc1ccc2nc(N=C(N)N)nc(C)c2c1
Reply: 114

Task item: Record request: GFP response vs DMSO value, item O=C(NCCC(c1ccccc1)c1ccco1)c1cccs1 (configuration not stated)
Reply: 127

Task item: Record request: GFP response vs DMSO value, item O=C(/C=C/Sc1ccccc1)c1ccccc1
Reply: 112

Task item: Record request: GFP response vs DMSO value, item COc1ccc(C2CC(c3c(O)cc(C)oc3=O)=NCCS2)c(OC)c1 (configuration not stated)
Reply: 86.8

----------
Below is a list of entries, each paired with its recorded response value.
assay: cytosolic pH regulators acting via V-ATPase – S. cerevisiae, pHLuorin, HTS validation (AID 504600); conditions: V-ATPase proton transport, at 10 µM, stronger effect = higher value;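 note: plate controls were DMSO for no effect and reference compound for full effect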
Record the value in %, omitting the unit from your answer.

Task item: Record request: response value, item C=CCC1(Cl)C(=O)C(Cl)=C(N2CCOCC2)C1(OC)OC (stereo not drawn)
Reply: -0.35

Task item: Record request: response value, item CCN(CCCc1ccccc1)CCCc1ccccc1
Reply: -9.09

Task item: Record request: response value, item O=C(CN1C(=O)/C(=C/c2cccc(Br)c2)SC1=S)Nc1cccnc1
Reply: 4.59

----------
Below is a list of entries, each paired with its recorded GTP binding, percent of control value.
molecular target: GTPase HRas (Homo sapiens); test: Ras wt fluorescent GTP loading blockade – biochemical, wildtype, multiplex bead flow cytometry, dose response (AID 1335); settings: bead-based flow cytometry, Bodipy-GTP binding to GST-Ras; at 100 µM (top of the series) unless noted
Record the value in %, omitting the unit from your answer.

Guide cases for GTP binding, percent of control, answers given:
compound	target or test system	measure unit	GTP binding, percent of control
Cc1nc2ccc(-c3nc4ccc(N)cc4[nH]3)cc2[nH]1	GTPase HRas (Homo sapiens)	%	79.9
S=C(NCCc1ccccc1)N1CCn2cccc2C1c1cccnc1 (centres undefined)	GTPase HRas (Homo sapiens)	%	63.3
O=[N+]([O-])c1ccc2c(c1)c(-c1ccccc1)nc1nncn12	GTPase HRas (Homo sapiens)	%	72.1
Cc1noc(NS(=O)(=O)c2ccc(NC(=O)CSc3nnc4c(n3)[nH]c3ccccc34)cc2)c1C	GTPase HRas (Homo sapiens)	%	32.7
CCOc1ccc(-n2nc3c(=S)[nH]nc(C)c3c2C)cc1	GTPase HRas (Homo sapiens)	%	66.6

Task item: Record request: GTP binding, percent of control value, item O=C(O)c1ccc(CSCc2cccc(Cl)c2)o1
Reply: 81.4

----------
Below is a list of entries, each paired with its recorded GTP binding, percent of control value.
target: GTPase HRas (Homo sapiens); assay: Ras wt fluorescent GTP loading blockade – biochemical, wildtype, multiplex bead flow cytometry, dose response (AID 1335); conditions: bead-based flow cytometry, Bodipy-GTP binding to GST-Ras; at 100 µM (top of the series) unless noted
Value and unit, in that order.

Guide cases for GTP binding, percent of control, answers given:
smiles representation	observation type	observed measurement
O=c1c2ccccc2nc2ccc(NCc3ccco3)nn12	GTP binding, percent of control	71.8%
CN1/C(=C\C=C(/C#N)C(=O)Nc2ccc(Cl)cc2)C(C)(C)c2ccccc21	GTP binding, percent of control	80%
O=C(O)COc1ccccc1/C=N/NC(=O)c1cc(-c2ccc(F)cc2)nc2ccccc12	GTP binding, percent of control	80.5%

Please examine the following record next.
Task item: Fill in the recorded GTP binding, percent of control for this molecule, with GTPase HRas (Homo sapiens) as test system: Cc1ccccc1/C=C1\SC(=S)N(/N=C/c2cc([N+](=O)[O-])ccc2O)C1=O
Reply: 81.2%

----------
molecular target: GTPase HRas (Homo sapiens) (UniProt P01112); assay: Ras wt fluorescent GTP loading blockade – biochemical, wildtype, multiplex bead flow cytometry, dose response (AID 1335); conditions: bead-based flow cytometry, Bodipy-GTP binding to GST-Ras; at 100 µM (top of the series) unless noted
Sequence (P01112 whole entry, looked up): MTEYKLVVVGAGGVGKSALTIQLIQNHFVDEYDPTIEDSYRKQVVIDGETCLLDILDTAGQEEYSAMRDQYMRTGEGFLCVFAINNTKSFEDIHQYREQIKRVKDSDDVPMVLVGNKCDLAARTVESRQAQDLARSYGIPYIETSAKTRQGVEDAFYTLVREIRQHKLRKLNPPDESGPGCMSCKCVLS
observation type: GTP binding, percent of control (%)
Record the value in %, omitting the unit from your answer.

smiles representation	observed measurement
CCOC(=O)c1cnc(SCc2ccc(C)cc2)nc1N	82.3
COc1ccc(OC)c(CNCc2sc(C(=O)O)cc2C)c1	81.9
COc1ccc(C2(CNC(=O)C(c3ccccc3)c3ccccc3)CCOCC2)cc1OC	80.6

Please examine the following record next.
Task item: Fill in the recorded GTP binding, percent of control for this molecule, with GTPase HRas (Homo sapiens) (UniProt P01112) as test system: Nc1nn2c(-c3ccccc3)cc(=O)[nH]c2c1N=Nc1ccc(Br)cc1
Reply: 78.1

----------
Below is a list of entries, each paired with its recorded double positive events value.
test: reduced mouse 2C T cell binding to pMHC/ICAM-1 vesicles – MLPCN validation set, flow cytometry, LFA-1/ICAM-1 modulator project, pilot screen (AID 2523); settings: 2C mouse CD8+ T cells, at 7 µM, stronger effect = lower value; measured here: CD8+/vesicle+ event percentage
Record the value in %, omitting the unit from your answer.

Guide cases for double positive events, answers given:
compound	measure unit	double positive events
COCCCN1C(=O)C(=O)/C(=C(/O)c2ccc3c(c2)CC(C)O3)C1c1cccnc1 (configuration not stated)	%	59
COc1ccc(OC)c(NC2=C(Cl)C(=O)N(Cc3ccccc3)C2=O)c1	%	59.3
CC(=O)N(C(C)=O)c1nc2nc(C)cc(C)n2n1	%	67.9
Oc1ccccc1OCCOc1ccccc1OCCOc1ccccc1O	%	62.1
Cc1ccc(S(=O)(=O)NC(=O)NN2CCCCCC2)cc1	%	61.4

Task item: Record request: double positive events value, item N#CCC(N)=C(C#N)C#N
Reply: 60.1

Task item: Record request: double positive events value, item COCCn1c(SCCOc2ccccc2)nc2ccccc2c1=O
Reply: 54

Task item: Record request: double positive events value, item O=C1C(=O)c2ccccc2C(O)=C1c1ccccc1F
Reply: 54.9

Task item: Record request: double positive events value, item O=C(NCc1ccco1)/C(=C\C=C\c1ccccc1)NC(=O)c1ccccc1Br
Reply: 60.6

Task item: Record request: double positive events value, item C[C@H](NC(=O)C1(c2ccccc2)CCN(C(=O)[C@H]2CSCN2C(=O)OC(C)(C)C)CC1)C(=O)O
Reply: 62

Task item: Record request: double positive events value, item Cc1coc2cc3oc(=O)c(CCC(=O)O)c(C)c3cc12
Reply: 58.9

Task item: Record request: double positive events value, item COc1ccccc1NC(=O)C12CCC(C)(C(=O)C1)C2(C)C (configuration not stated)
Reply: 63.5

Task item: Record request: double positive events value, item C[C@H]([C@@H](N)C(=O)N[C@@H](C(=O)O)[C@@H]1O[C@H](n2ccc(=O)[nH]c2=O)[C@@H](O)[C@H]1O)[C@@H](O)c1ccc(O)cn1
Reply: 59.1

----------
assay: reduced mouse 2C T cell binding to pMHC/ICAM-1 vesicles – MLPCN validation set, flow cytometry, LFA-1/ICAM-1 modulator project, pilot screen (AID 2523); details: 2C mouse CD8+ T cells, at 7 µM, stronger effect = lower value;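 for vesicle binding response: mean PE anti-B7-1 fluorescence of CD8+ cells relative to row control; 100% = QL9-loaded vesicles with DMSO vehicle in the same plate row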
observation type: vesicle binding response (%)
Record the value in %, omitting the unit from your answer.

Guide cases for vesicle binding response, answers given:
molecule	measure unit	vesicle binding response
Cc1ccc(CN2CCN(CCCc3ccccc3)CC2CCO)cc1 (centres undefined)	%	219
COc1ccc(-c2cc(C(=O)N3CCOCC3)c3cc(C)ccc3n2)cc1	%	206
CC1(C)CC(=O)c2cn3c(nc2C1)nc1ccccc13	%	104
CN1[C@@H]2CC[C@H]1CC(OC(=O)C(CO)c1ccccc1)C2 (some centres undefined)	%	163
CC1(C)C(=O)OC(/C=C\c2ccccc2)C(C)(C)C1=O (centres undefined)	%	160

Task item: Record request: vesicle binding response value, item OCCN(Cc1nc(-c2ccc3c(c2)OCO3)no1)Cc1cccs1
Reply: 118

Task item: Record request: vesicle binding response value, item O=C(/C=C/c1ccccc1)NC(=O)c1ccccc1O
Reply: 128
